Tested on: LCLC-97TM1
Assay: relative viability (nuclei count vs DMSO), 5 days (fraction); higher = more cells survive
Conditions: first compound 0.4 µM
Strictly below 0.6 in relative viability: TRUE. Otherwise: FALSE.

These solved cases illustrate the format of a correct answer.
Compound: Cc1sc2c(c1C)C(c1ccc(Cl)cc1)=N[C@@H](CC(=O)OC(C)(C)C)c1nnc(C)n1-2 [JQ1] + Cc1nc(Nc2ncc(C(=O)Nc3c(C)cccc3Cl)s2)cc(N2CCN(CCO)CC2)n1 [Dasatinib] (partner 0.075 µM)
Target of assay: LCLC-97TM1
Qualitative label: FALSE

Compound: Cc1sc2c(c1C)C(c1ccc(Cl)cc1)=N[C@@H](CC(=O)OC(C)(C)C)c1nnc(C)n1-2 [JQ1] + CC(=O)Nc1cccc(-n2c(=O)n(C3CC3)c(=O)c3c(Nc4ccc(I)cc4F)n(C)c(=O)c(C)c32)c1 [Trametinib] (partner 0.02 µM)
Target of assay: LCLC-97TM1
Qualitative label: TRUE

[ask] Input Cc1sc2c(c1C)C(c1ccc(Cl)cc1)=N[C@@H](CC(=O)OC(C)(C)C)c1nnc(C)n1-2 [JQ1] + CCNC(=O)c1noc(-c2cc(C(C)C)c(O)cc2O)c1-c1ccc(CN2CCOCC2)cc1 [Luminespib] (partner 0.01 µM) ; condition: relative viability strictly below 0.6. Does it hold?
[reply] FALSE

[ask] Input Cc1sc2c(c1C)C(c1ccc(Cl)cc1)=N[C@@H](CC(=O)OC(C)(C)C)c1nnc(C)n1-2 [JQ1] + CC(=O)c1c(C)c2cnc(Nc3ccc(N4CCNCC4)cn3)nc2n(C2CCCC2)c1=O [Palbociclib] (partner 0.5 µM) ; condition: relative viability strictly below 0.6. Does it hold?
[reply] TRUE

[ask] Input Cc1sc2c(c1C)C(c1ccc(Cl)cc1)=N[C@@H](CC(=O)OC(C)(C)C)c1nnc(C)n1-2 [JQ1] + Nc1ncn([C@H]2C[C@H](O)[C@@H](CO)O2)c(=O)n1 [Decitabine] (partner 2 µM) ; condition: relative viability strictly below 0.6. Does it hold?
[reply] TRUE
